Target: Sodium-dependent serotonin transporter
Assay: Inhibition of [3H]citalopram binding to the serotonin transporter in the cynomolgus (macaca fascicularis) monkey caudate-putamen.
quantityMeasured: IC50 (µM)
Supply the numeric figure in µM, leaving out any unit text.

Consider the worked cases shown below.
{"columns": ["compound", "IC50 / µM"],
 "data": [
  ["COC(=O)C1C2CCC(C[C@@H]1OC(c1ccccc1)c1ccc(F)cc1)N2C (stereo not given in full)", 4.93],
  ["COC(=O)C1C2CCC(C[C@@H]1OC(c1ccc(F)cc1)c1ccc(F)cc1)N2CCCc1ccc(Br)cc1 (stereo not given in full)", 0.234],
  ["COC(=O)C1C2CCC(C[C@@H]1OC(c1ccccc1)c1ccccc1)N2C (stereo not given in full)", 10.1]
]}

Query :: Need IC50, item CN1C2CCC1CC(OC(c1ccc(F)cc1)c1ccc(F)cc1)C2 (stereo not given)
Result :: 5.34

Query :: What do you have for COC(=O)C1C2CCC(C[C@@H]1OC(c1ccc(Cl)cc1)c1ccc(Cl)cc1)N2C (stereo not given in full) ?
Result :: 3.36

###

molecules and their reported IC50
Biological target: Sodium-dependent serotonin transporter
Experiment: Inhibition of [3H]citalopram binding to the serotonin transporter in the cynomolgus (macaca fascicularis) monkey caudate-putamen.
Supply the numeric figure in µM, leaving out any unit text.

Consider the worked cases shown below.
{"columns": ["molecule", "targetOrSystem", "quantityMeasured", "unitName", "measValue"],
 "data": [
  ["CCC(O[C@H]1CC2CCC(C1C(=O)OC)N2C)c1ccccc1 (stereo not given in full)", "Sodium-dependent serotonin transporter", "IC50", "µM", 21],
  ["COC(=O)C1C2CC[C@@H](C[C@@H]1OC(c1ccc(F)cc1)c1ccc(F)cc1)N2C (stereo not given in full)", "Sodium-dependent serotonin transporter", "IC50", "µM", 3.53],
  ["COC(=O)C1C2CCC(C[C@@H]1OC1c3ccccc3-c3ccccc31)N2C (stereo not given in full)", "Sodium-dependent serotonin transporter", "IC50", "µM", 3.44],
  ["COC(=O)C1C2CCC(C[C@@H]1OC(c1ccc(F)cc1)c1ccc(F)cc1)N2CCCCCc1ccccc1 (stereo not given in full)", "Sodium-dependent serotonin transporter", "IC50", "µM", 0.55]
]}

Field: next molecule
Query :: Need IC50, item COC(=O)C1C2CCC(C[C@@H]1OC(c1ccc(F)cc1)c1ccc(F)cc1)N2Cc1ccccc1 (stereo not given in full)
Result :: 4.97

###

compounds and their reported IC50
Target: Sodium-dependent serotonin transporter
Test: Inhibition of [3H]citalopram binding to the serotonin transporter in the cynomolgus (macaca fascicularis) monkey caudate-putamen.
Supply the numeric figure in µM, leaving out any unit text.

Consider the worked cases shown below.
{"columns": ["compound", "targetOrSystem", "IC50 (µM)"],
 "data": [
  ["COC(=O)C1C2CCC(C[C@@H]1OC(c1ccc(F)cc1)c1ccc(F)cc1)N2CCCc1ccc(I)cc1 (stereo not given in full)", "Sodium-dependent serotonin transporter", 2.2],
  ["COC(=O)C1C2CCC(C[C@@H]1OC(c1ccc(F)cc1)c1ccc(F)cc1)N2CCCc1ccccc1 (stereo not given in full)", "Sodium-dependent serotonin transporter", 0.0197]
]}

Query :: # returns recorded IC50 (system: Sodium-dependent serotonin transporter) for COC(=O)C1C2CCC(C[C@@H]1OC(c1ccccc1)c1ccc(Br)cc1)N2C (stereo not given in full)
Result :: 5.77

Query :: What do you have for COC(=O)C1C2CCC(C[C@@H]1OC(c1ccc(C)cc1)c1ccc(C)cc1)N2C (stereo not given in full) ?
Result :: 9.8

Query :: What do you have for COC(=O)C1C2CCC(C[C@@H]1OC(c1ccccc1)c1ccc(C)cc1)N2C (stereo not given in full) ?
Result :: 13.2

Query :: What do you have for COC(=O)C1C2CCC(C[C@@H]1OC(c1ccc(I)cc1)c1ccc(I)cc1)N2C (stereo not given in full) ?
Result :: 8.55

Query :: What do you have for COC(=O)C1C2CCC(C[C@@H]1OC(c1ccccc1)c1ccc(I)cc1)N2C (stereo not given in full) ?
Result :: 9.28

Query :: What do you have for COC(=O)C1C2CCC(C[C@@H]1OC(c1ccccc1)c1ccc(Cl)cc1)N2C (stereo not given in full) ?
Result :: 5.96

Query :: What do you have for COC(=O)C1C2CCC(C[C@@H]1OC(c1ccc(Br)cc1)c1ccc(Br)cc1)N2C (stereo not given in full) ?
Result :: 2.43

Query :: What do you have for COC(=O)C1C2CCC(C[C@@H]1OC(c1ccc(Br)cc1)c1ccc(I)cc1)N2C (stereo not given in full) ?
Result :: 4.39
